Hey, just so you know, these numbers are from PubChem BioAssay AID1222.

# procedure-text: rescue of cells from ER stress-induced death, primary screen, 384-well, CSM14.1, thapsigargin, ATP luminescence (AID 1222);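 further: death triggered by thapsigargin at about 15 µM added after 2 h compound pretreatment; cell ATP read after overnight thapsigargin exposure of roughly 18 to 22 hours; reference of the scale not given here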
# protocol-conditions: CSM14.1 thapsigargin-induced death rescue, at 20 µM, stronger effect = higher value
Screen size: about 190,000 compounds; fewer than 10 were called active. Not all results are given here. Potency and affinity values are given separately.
Assign cellular ATP content (survival) to each entry below.
A number alone suffices; assume %.

Challenge: Entry CC1C(c2ccccc2)=[N+]([O-])C2(CCCCC2)N1O (configuration not stated) : reported cellular ATP content (survival) = ?
Response given: -0.2

Challenge: # lookup: cellular ATP content (survival) of Cn1cc(Cl)c(C(=O)NNC(=S)NC2CCCCC2)n1
Response given: 1.1

Challenge: # cellular ATP content (survival) lookup, item CCOC(=O)N1CCN(C(=O)c2cnn3ccccc23)CC1
Response given: 2.2

Challenge: Item under review: Nc1ccc(Cc2nc3cc4ccccc4cc3[nH]2)cc1 . Reported cellular ATP content (survival)?
Response given: -1.5

Challenge: Entry O=C(NCCCN1CCCC1)c1cc2c(Cl)nc3ccccc3c2s1 : reported cellular ATP content (survival) = ?
Response given: -12

Challenge: Which cellular ATP content (survival) is listed for CCOC(=O)c1cc2c(=O)n3ccccc3nc2n(Cc2ccccc2Cl)c1=N ?
Response given: -1.3

Challenge: I am curious: what cellular ATP content (survival) value has been reported for O=C1CCCN1CCCN1C(=O)N[C@@H](Cc2ccccc2)C1=O ?
Response given: 2
